Values were extracted from patent US20040106802A1.

- system_under_test: Porcine DPP-IV (Sus scrofa, UniProt P22411)
- Construct: purchased Sigma-Aldrich Germany
- Sequence (P22411 whole entry): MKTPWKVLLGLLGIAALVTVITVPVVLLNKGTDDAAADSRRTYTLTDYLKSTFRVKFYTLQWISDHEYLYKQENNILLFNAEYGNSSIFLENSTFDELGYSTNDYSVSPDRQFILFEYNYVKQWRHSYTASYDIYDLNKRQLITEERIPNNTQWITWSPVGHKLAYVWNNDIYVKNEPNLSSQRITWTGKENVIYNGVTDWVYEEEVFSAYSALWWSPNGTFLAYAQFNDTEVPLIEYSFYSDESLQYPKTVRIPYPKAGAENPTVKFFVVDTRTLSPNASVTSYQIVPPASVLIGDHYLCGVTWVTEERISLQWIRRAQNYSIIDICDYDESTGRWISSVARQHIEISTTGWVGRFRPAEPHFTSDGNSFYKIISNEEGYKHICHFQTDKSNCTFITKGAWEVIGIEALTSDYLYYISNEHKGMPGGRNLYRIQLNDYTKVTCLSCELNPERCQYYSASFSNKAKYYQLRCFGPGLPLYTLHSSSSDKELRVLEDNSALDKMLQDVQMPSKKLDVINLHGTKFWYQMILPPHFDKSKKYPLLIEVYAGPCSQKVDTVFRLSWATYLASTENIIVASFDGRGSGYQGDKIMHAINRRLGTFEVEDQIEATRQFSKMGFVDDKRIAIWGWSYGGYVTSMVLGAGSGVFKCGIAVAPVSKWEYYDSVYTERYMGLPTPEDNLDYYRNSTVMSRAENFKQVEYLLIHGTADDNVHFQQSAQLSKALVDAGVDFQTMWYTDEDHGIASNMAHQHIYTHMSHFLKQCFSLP
- assay_explanation: Assay of DPP-IV enzyme inhibitory activity (spectrophotometric, Gly-Pro-pNA cleavage)
- Assay type: biochemical
- assay_context: Porcine DPP-IV, Gly-Pro-pNA substrate, 30° C.; mean ± SD of three experiments except compound Nos. 133 & 139; read-out: IC50 (μM) Mean ± SD, inhibitory activity on DPP-IV enzyme activity
Structures can show the parent of a compound that is named as a salt.
For each of the compounds below, state its IC50.
Please reply with the bare figure in µM and do not write the unit itself.

### Prompt Look up and report measured IC50 for this entry: N#CC1CCCN1C(=O)CN(N)C1CCCc2ccccc21 (centres unmarked)
### Response 45.2

### Prompt Look up and report measured IC50 for this entry: N#CC1CSCN1C(=O)CN(N)C12CC3CC(CC(C3)C1)C2 (centres unmarked)
### Response 0.31

### Prompt Look up and report measured IC50 for this entry: CS(=O)(=O)NC1CCC(N(N)CC(=O)N2CSCC2C#N)CC1 (centres unmarked) [Compound No. 114, hydrochloride]
### Response 0.397

### Prompt Look up and report measured IC50 for this entry: N#CC1CCCN1C(=O)CN(N)c1ccccn1 (centres unmarked)
### Response 43

### Prompt Look up and report measured IC50 for this entry: CC1CCC(N(N)CC(=O)N2CSCC2C#N)CC1.O=C(O)C(F)(F)F (centres unmarked) [Compound No. 25]
### Response 0.67
